Assay: Metabolic stability in mouse liver microsome assessed as compound remaining at 500 uM measured at 60 mins by LC-MS/MS method
Type: ADME
Details: liver microsomes, read-out: Stability
reported.endpoint: remaining at 1 h (%)

Enquiry: Record request: remaining at 1 h value, item `COc1cc2c(cc1OC)CN(c1ccc(C(=O)O)cc1)CC2`
Return: 91.8

Enquiry: Record request: remaining at 1 h value, item `COc1ccc(N2CCc3cc(OC)c(OC)cc3C2)cc1`
Return: 1.7

Enquiry: Record request: remaining at 1 h value, item COc1cc2c(cc1OC)C(C)N(c1ccc(C=O)cc1)CC2 (centres undefined)
Return: 1

Enquiry: Record request: remaining at 1 h value, item `COC(=O)c1ccccc1N1CCc2cc(OC)c(OC)cc2C1`
Return: 0.1

Enquiry: Record request: remaining at 1 h value, item `COc1cc2c(cc1OC)CN(c1ccc(F)cc1)CC2`
Return: 0.6

[I] COc1cc2c(cc1OC)C(C)N(c1ccc(F)cc1)CC2 (centres undefined)
[II] COc1cc2c(cc1OC)CN(c1cccnc1)CC2
[III] COc1cc2c(cc1OC)C(C)N(c1ccc(CO)cc1)CC2 (centres undefined)
[IV] COc1cc2c(cc1OC)CN(c1cccc(O)c1)CC2
Enquiry: Reorder the items by remaining at 1 h, least to greatest. Write out the labels following the order that was asked for.
Return: II, I, IV, III
(II: 0.2%, I: 0.3%, IV: 0.5%, III: 33.8%)

[I] COc1cc2c(cc1OC)CN(c1ccccc1)CC2
[II] COc1cc2c(cc1OC)CN(c1ccccn1)CC2
Enquiry: Please indicate which item has the smaller measured remaining at 1 h: I versus II Give the label under which the chosen entry appears.
Return: II
(II: 0.2%, I: 0.4%)

[A] COc1cc2c(cc1OC)CN(c1ccc(CO)cc1)CC2
[B] COc1cc2c(cc1OC)CN(c1ccc(C=O)cc1)CC2
[C] COc1cc2c(cc1OC)CN(c1cc(C(F)(F)F)cc(C(F)(F)F)c1)CC2
Enquiry: Rank order required: remaining at 1 h, descending. Write out the labels following the order that was asked for.
Return: A, C, B
(A: 64.4%, C: 26.9%, B: 0.4%)

* * *

Biological target: MAO-B (amine oxidase [flavin-containing] B) (Homo sapiens, UniProt P27338)
Sequence (P27338 whole entry): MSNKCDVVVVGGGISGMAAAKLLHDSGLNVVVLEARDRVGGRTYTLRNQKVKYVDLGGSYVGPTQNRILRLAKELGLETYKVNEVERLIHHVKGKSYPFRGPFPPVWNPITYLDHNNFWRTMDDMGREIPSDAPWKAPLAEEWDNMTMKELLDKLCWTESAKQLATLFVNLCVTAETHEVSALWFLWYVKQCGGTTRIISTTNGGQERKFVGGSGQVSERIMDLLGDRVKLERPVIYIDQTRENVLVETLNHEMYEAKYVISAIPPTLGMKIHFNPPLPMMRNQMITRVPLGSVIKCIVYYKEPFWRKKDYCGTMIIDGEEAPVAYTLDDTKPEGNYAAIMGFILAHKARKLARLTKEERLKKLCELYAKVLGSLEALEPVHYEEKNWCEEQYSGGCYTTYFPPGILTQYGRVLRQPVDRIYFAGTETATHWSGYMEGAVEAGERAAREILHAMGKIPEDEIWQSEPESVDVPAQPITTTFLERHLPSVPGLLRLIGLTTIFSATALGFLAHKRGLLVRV
Experiment: Inhibition of human MAO-B assessed as residual activity at 10 uM relative to control
Details: read-out: Activity
reported.endpoint: activity at 10 µM (%)

Enquiry: Record request: activity at 10 µM value, item `COc1cc2c(cc1OC)CN(c1cccnc1)CC2`
Return: 86

Enquiry: Record request: activity at 10 µM value, item `COc1cc2c(cc1OC)CN(c1ccc(CO)cc1)CC2`
Return: 79

Enquiry: Record request: activity at 10 µM value, item `COc1cc2c(cc1OC)CN(c1ccc(C(=O)O)cc1)CC2`
Return: 97

Enquiry: Record request: activity at 10 µM value, item `COc1ccc(N2CCc3cc(OC)c(OC)cc3C2)cc1`
Return: 95

[1] COc1cc2c(cc1OC)CN(c1cccc(O)c1)CC2
[2] COc1cc2c(cc1OC)CN(c1ccc(F)cc1)CC2
Enquiry: Could you please tell me which of these two has the higher activity at 10 µM: 1 or 2 ? Give the label under which the chosen entry appears.
Return: 1

All figures here come from ChEMBL document CHEMBL5113541.
